# Test system: Colon cancer cell lines
# PROCEDURE_DETAILS: NCI-60 SRB growth inhibition, subpanel
# Assay type: cell-based, human
# SETUP_CONDITIONS: Homo sapiens, read-out: GI50 MG-MID
Reported GI50 values for the following compounds.
Could you give me the number in µM? Just the number is fine.

Here is how some compounds turned out for GI50.
The compound listed as "O=C(/C=C/c1cccnc1)c1cccc(NCc2csc3ccccc23)c1" has a reported GI50 of 3.93

The compound listed as "O=C(/C=C/c1cccnc1)c1cccc(NCc2ccc(CO)cc2)c1" has a reported GI50 of 6.42

The compound listed as "CC(=O)Nc1ccc(/C=C/C(=O)c2cccc(NCc3ccc(C)cc3)c2)cc1" has a reported GI50 of 7.86

The compound listed as "Cc1ccc(CNc2cccc(C(=O)/C=C/c3cccnc3)c2)cc1" has a reported GI50 of 8.84

The compound listed as "CC(=O)Nc1ccc(CNc2cccc(C(=O)/C=C/c3cccnc3)c2)cc1" has a reported GI50 of 3.26

Continue with the compound presented below.
The compound listed as "CC(=O)Nc1ccc(/C=C/C(=O)c2cccc(NCc3csc4ccccc34)c2)cc1" has a reported GI50 of 6.66

====

# System: SW-620
# PROCEDURE_DETAILS: NCI-60 SRB growth inhibition, one-dose and five-dose
# Format: cell-based
# SETUP_CONDITIONS: Homo sapiens, SW-620
Please note: GI50 exactly at 2000 nM is no. Only values below 2000 nM get yes.

Field: example entries. Status: answers known.
INPUT: Find out if reported GI50 for CC(=O)Nc1ccc(/C=C/C(=O)c2cccc(NCc3ccc(C)cc3)c2)cc1 [Compound 5f] is less than 2000 nM
OUTPUT: no

INPUT: Find out if reported GI50 for CC(=O)Nc1ccc(/C=C/C(=O)c2cccc(NCc3ccc(NC(C)=O)cc3)c2)cc1 [Compound 5g] is less than 2000 nM
OUTPUT: yes

INPUT: Find out if reported GI50 for CC(=O)Nc1ccc(/C=C/C(=O)c2cccc(NCc3ccc(CO)cc3)c2)cc1 [Compound 5j] is less than 2000 nM
OUTPUT: no

INPUT: Find out if reported GI50 for O=C(/C=C/c1cccnc1)c1cccc(NCc2csc3ccccc23)c1 [Compound 5d] is less than 2000 nM
OUTPUT: yes

INPUT: Find out if reported GI50 for CC(=O)Nc1ccc(CNc2cccc(C(=O)/C=C/c3cccnc3)c2)cc1 [Compound 5b] is less than 2000 nM
OUTPUT: yes

***
INPUT: Find out if reported GI50 for COc1ccc(CNc2cccc(C(=O)/C=C/c3cccnc3)c2)cc1OC [Compound 5c] is less than 2000 nM
OUTPUT: no

INPUT: Find out if reported GI50 for CC(=O)Nc1ccc(/C=C/C(=O)c2cccc(NCc3csc4ccccc34)c2)cc1 [Compound 5i] is less than 2000 nM
OUTPUT: no

====

# Test system: T-47D
# PROCEDURE_DETAILS: NCI-60 SRB growth inhibition, one-dose and five-dose
# Type: cell-based
# SETUP_CONDITIONS: Homo sapiens, T47D
Please note: GI50 exactly at 9 µM is no (0). Only values below 9 µM get yes (1).

Field: example entries. Status: answers known.
INPUT: Find out if reported GI50 for "Cc1ccc(CNc2cccc(C(=O)/C=C/c3cccnc3)c2)cc1" is less than 9 µM
OUTPUT: no (0)

INPUT: Find out if reported GI50 for "CC(=O)Nc1ccc(/C=C/C(=O)c2cccc(NCc3ccc(CO)cc3)c2)cc1" is less than 9 µM
OUTPUT: no (0)

***
INPUT: Find out if reported GI50 for "CC(=O)Nc1ccc(/C=C/C(=O)c2cccc(NCc3ccc(NC(C)=O)cc3)c2)cc1" is less than 9 µM
OUTPUT: yes (1)

INPUT: Find out if reported GI50 for "O=C(/C=C/c1cccnc1)c1cccc(NCc2csc3ccccc23)c1" is less than 9 µM
OUTPUT: yes (1)
